Here the recorded KINOMEscan: CAMK2A is given for each entry.
target: panel of 442 kinases (Homo sapiens, UniProt Q9UQM7); construct: purchased KINOMEscan; type: binding; set-up: unit: % Ctrl; details: Compound Concentration 10 µM
Sequence (Q9UQM7 whole entry): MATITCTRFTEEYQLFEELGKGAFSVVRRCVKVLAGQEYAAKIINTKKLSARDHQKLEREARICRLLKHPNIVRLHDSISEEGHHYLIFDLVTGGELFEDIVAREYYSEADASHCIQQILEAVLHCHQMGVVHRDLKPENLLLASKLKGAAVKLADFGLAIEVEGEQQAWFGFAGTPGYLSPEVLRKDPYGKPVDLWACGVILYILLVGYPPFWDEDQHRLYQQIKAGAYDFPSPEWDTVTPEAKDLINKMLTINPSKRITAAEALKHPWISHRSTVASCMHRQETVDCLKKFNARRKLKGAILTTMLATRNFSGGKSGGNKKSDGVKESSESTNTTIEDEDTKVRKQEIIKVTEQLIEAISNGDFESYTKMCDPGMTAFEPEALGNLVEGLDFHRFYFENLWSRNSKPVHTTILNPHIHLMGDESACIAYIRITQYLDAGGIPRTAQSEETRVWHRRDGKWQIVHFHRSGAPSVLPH
I only need the number, thanks.

molecule	targetOrTestSystem	measuredEndpoint	observedResult
COc1cc(C(=O)N2CCC(N3CCN(C)CC3)CC2)ccc1Nc1ncc2c(n1)N1CCc3cccc(c31)C(=O)N2C [Compound 24]	panel of 442 kinases (Homo sapiens, UniProt Q9UQM7)	KINOMEscan: CAMK2A	44
CCOc1cc(C(=O)N2CCC(N3CCN(C)CC3)CC2)ccc1Nc1ncc2c(n1)N(C1CCCC1)c1ccccc1C(=O)N2C [Compound 26]	panel of 442 kinases (Homo sapiens, UniProt Q9UQM7)	KINOMEscan: CAMK2A	100
COc1cc(C(=O)N2CCC(N3CCN(C)CC3)CC2)ccc1Nc1ncc2c(n1)N(C)c1ccccc1C(=O)N2C [15 (LRRK2-IN-1)]	panel of 442 kinases (Homo sapiens, UniProt Q9UQM7)	KINOMEscan: CAMK2A	21

Now turn to the next molecule.
## Input Please look up its KINOMEscan: CAMK2A: COc1cc(C(=O)N2CCC(N3CCN(C)CC3)CC2)ccc1Nc1ncc2c(n1)N(C1CCCC1)c1ccccc1C(=O)N2C [Compound 25]
## Output 81

###

Molecular target: panel of 442 kinases (Homo sapiens, UniProt Q08345)
Construct: purchased KINOMEscan
Sequence (Q08345 19-913): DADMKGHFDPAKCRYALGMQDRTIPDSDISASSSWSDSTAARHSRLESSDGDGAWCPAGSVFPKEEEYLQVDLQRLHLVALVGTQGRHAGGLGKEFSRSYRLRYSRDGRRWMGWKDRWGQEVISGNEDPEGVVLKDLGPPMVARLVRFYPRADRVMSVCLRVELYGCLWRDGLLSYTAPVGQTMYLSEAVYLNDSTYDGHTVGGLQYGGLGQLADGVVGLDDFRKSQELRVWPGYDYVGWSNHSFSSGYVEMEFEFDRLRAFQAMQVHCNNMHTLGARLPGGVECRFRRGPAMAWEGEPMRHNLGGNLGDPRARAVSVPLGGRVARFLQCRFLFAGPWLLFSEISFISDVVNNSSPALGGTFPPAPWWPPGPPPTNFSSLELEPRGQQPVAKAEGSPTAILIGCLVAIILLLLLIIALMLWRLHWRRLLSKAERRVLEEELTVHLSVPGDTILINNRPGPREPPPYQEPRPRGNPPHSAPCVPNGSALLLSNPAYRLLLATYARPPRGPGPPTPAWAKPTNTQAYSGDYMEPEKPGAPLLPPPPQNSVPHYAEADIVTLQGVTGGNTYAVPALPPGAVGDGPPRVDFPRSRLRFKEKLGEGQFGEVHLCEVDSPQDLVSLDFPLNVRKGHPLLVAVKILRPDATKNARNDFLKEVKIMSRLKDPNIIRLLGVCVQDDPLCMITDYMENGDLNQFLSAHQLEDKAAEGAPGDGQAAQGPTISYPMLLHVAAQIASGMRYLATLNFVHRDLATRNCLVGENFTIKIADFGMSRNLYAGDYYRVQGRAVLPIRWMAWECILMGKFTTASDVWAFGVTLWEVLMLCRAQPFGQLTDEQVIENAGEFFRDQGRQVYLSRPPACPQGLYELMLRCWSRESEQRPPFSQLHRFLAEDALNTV
Assay type: binding
Conditions: Compound Concentration 10 µM
Source text: We assessed the selectivity of members of this scaffold using the KINOMEscan methodology across a near comprehensive panel of 442 kinases [[18,27]].
measuredEndpoint: KINOMEscan: DDR1
Write no unit; give the number alone.

Take a look at these entries with their results.
CCOc1cc(C(=O)N2CCC(N3CCN(C)CC3)CC2)ccc1Nc1ncc2c(n1)N(C1CCCC1)c1ccccc1C(=O)N2C 100
COc1cc(C(=O)N2CCC(N3CCN(C)CC3)CC2)ccc1Nc1ncc2c(n1)N(C1CCCC1)c1ccccc1C(=O)N2C 98
COc1cc(C(=O)N2CCC(N3CCN(C)CC3)CC2)ccc1Nc1ncc2c(n1)N(C)c1ccccc1C(=O)N2C 100

## Input Item: `COc1cc(C(=O)N2CCC(N3CCN(C)CC3)CC2)ccc1Nc1ncc2c(n1)N1CCc3cccc(c31)C(=O)N2C` Test system: panel of 442 kinases (Homo sapiens, UniProt Q08345) Read-out: KINOMEscan: DDR1 Value: ?
## Output 67

###

target: panel of 442 kinases (Homo sapiens); construct: purchased KINOMEscan; assay type: binding; settings: Compound Concentration 10 µM
Listed here: items and their measured KINOMEscan: ALK.
Provide a numeric answer; units are not to be included.

CCOc1cc(C(=O)N2CCC(N3CCN(C)CC3)CC2)ccc1Nc1ncc2c(n1)N(C1CCCC1)c1ccccc1C(=O)N2C 21

## Input Query KINOMEscan: ALK on panel of 442 kinases (Homo sapiens) for `COc1cc(C(=O)N2CCC(N3CCN(C)CC3)CC2)ccc1Nc1ncc2c(n1)N1CCc3cccc(c31)C(=O)N2C`
## Output 31

## Input What value of KINOMEscan: ALK on panel of 442 kinases (Homo sapiens) does `COc1cc(C(=O)N2CCC(N3CCN(C)CC3)CC2)ccc1Nc1ncc2c(n1)N(C)c1ccccc1C(=O)N2C` have?
## Output 13

## Input Param readout = KINOMEscan: ALK; param system = panel of 442 kinases (Homo sapiens); param query = `COc1cc(C(=O)N2CCC(N3CCN(C)CC3)CC2)ccc1Nc1ncc2c(n1)N(C1CCCC1)c1ccccc1C(=O)N2C` ; response: value
## Output 15

Data provenance: paper PMC3914206
